In this section we review reported phosphorylation enrichment values for a set of sequences.
Test system: AncSZ
Assay: phosphorylation enrichment, bacterial display (enrichment ratio); higher = better substrate or ligand; peptides without Tyr show the background
Write the value as a bare number.

Sequence | Reported Value
PSQRRYVYYYS [PTEN_Y174] | 0.958
RELGEYPLAEF [ALDH1A3_Y492_A493P_YF] | 1.18
DKTGEYPVPLT [ACADM_Y73_I78T] | 0.863
SVMVPYEPPEV [TP53_Y220_V217M] | 1.04
EFQLPYFNMVP [BMPR1A_Y457_YF] | 1.01
RNLLIYTEFGK [HGD_Y166_G161R] | 1.4
RYLTRYIYNRE [HLA-DQB1_Y62_V59L] | 1.91

Continue with the next sequence.
Q) What value of measured phosphorylation enrichment is listed for IRTDAYVWAMT [RPE65_Y89_R91W] ?
A) 1.07

* * *

Biological target: EPHB1 (UniProt P54762)
Sequence (P54762 whole entry, looked up): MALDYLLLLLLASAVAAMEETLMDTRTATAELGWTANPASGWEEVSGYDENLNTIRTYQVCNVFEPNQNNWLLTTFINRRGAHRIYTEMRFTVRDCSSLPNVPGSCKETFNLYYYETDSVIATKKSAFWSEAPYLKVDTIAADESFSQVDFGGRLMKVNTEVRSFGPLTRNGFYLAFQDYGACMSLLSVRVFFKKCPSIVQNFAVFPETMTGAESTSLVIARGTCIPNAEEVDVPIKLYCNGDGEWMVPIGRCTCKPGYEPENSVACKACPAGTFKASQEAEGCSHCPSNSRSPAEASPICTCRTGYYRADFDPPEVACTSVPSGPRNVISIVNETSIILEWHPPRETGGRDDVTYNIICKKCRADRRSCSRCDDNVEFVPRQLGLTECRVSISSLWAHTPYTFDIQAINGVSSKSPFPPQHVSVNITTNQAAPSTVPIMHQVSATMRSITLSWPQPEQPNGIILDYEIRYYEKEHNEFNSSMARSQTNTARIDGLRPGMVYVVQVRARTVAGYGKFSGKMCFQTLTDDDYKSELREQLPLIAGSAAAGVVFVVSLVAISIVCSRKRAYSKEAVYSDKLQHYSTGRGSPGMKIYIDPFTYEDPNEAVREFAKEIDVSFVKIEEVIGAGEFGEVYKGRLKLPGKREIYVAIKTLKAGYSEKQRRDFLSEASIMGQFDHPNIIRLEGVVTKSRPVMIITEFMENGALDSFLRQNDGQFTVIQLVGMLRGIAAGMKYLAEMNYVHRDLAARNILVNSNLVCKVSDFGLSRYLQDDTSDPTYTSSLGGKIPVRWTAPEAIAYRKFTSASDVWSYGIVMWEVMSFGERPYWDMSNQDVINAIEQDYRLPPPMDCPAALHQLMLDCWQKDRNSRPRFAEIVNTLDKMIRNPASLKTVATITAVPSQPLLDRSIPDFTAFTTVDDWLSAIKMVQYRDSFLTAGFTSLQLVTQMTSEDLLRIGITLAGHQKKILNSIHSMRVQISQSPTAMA
Assay: phosphorylation enrichment, bacterial display (enrichment ratio); higher = better substrate or ligand; peptides without Tyr show the background
Parameter: phosphorylation enrichment
Write the value as a bare number.

Sequence | Parameter | Reported Value
QEIATYRRLQE [KRT14_Y415_L419Q] | phosphorylation enrichment | 0.568
VQQVIYATRAL [MYH7_Y422_G425R] | phosphorylation enrichment | 0.434
ARGTRYRFVSQ [UCN3_Y95_YF] | phosphorylation enrichment | 0.416
KHTLSYVDVGT [SDHA_Y629] | phosphorylation enrichment | 0.573
EVGHVYLFLQP [ITGA2B_Y360_R358H] | phosphorylation enrichment | 0.735

Q) Hello, I am looking for reported phosphorylation enrichment with EPHB1 (UniProt P54762) for PADSGYPAFLG [ATP6V1A_Y374_YF] . Could you help?
A) 1.51

Q) Hello, I am looking for reported phosphorylation enrichment with EPHB1 (UniProt P54762) for NVVVPYEPPEV [TP53_Y220_S215N] . Could you help?
A) 0.612

Q) Hello, I am looking for reported phosphorylation enrichment with EPHB1 (UniProt P54762) for NGSFLYVIISQ [LRP1B_Y1988_R1987L] . Could you help?
A) 0.844

Q) Hello, I am looking for reported phosphorylation enrichment with EPHB1 (UniProt P54762) for QDGYSYLSRQM [LDLR_Y847_P848L] . Could you help?
A) 0.517

Q) Hello, I am looking for reported phosphorylation enrichment with EPHB1 (UniProt P54762) for RQGQAYRGQRV [TSHR_Y706_A703G] . Could you help?
A) 0.338

* * *

Test system: c-Abl (mouse)
Test: phosphorylation enrichment, bacterial display (enrichment ratio); higher = better substrate or ligand; peptides without Tyr show the background
Parameter: phosphorylation enrichment
Write the value as a bare number.

Use the examples below as a reference point.
Sequence | phosphorylation enrichment
AHPIIYTIIEA [PYKtide_no-pT_2014] | 1.85
FGCGMYSHLQG [LGR4_Y848_D844G_YF] | 1.04
GLRQGYFVEAQ [APCS_Y142] | 0.529

Continue with the next sequence.
Q) What value of measured phosphorylation enrichment is listed for SKEPFYVHCIK [MYO1D_Y586_R588H_YF] ?
A) 0.631

* * *

In this section we review reported SH2 binding enrichment values for a set of sequences.
Target: Grb2 SH2 (UniProt P62993)
Sequence (P62993 whole entry, looked up): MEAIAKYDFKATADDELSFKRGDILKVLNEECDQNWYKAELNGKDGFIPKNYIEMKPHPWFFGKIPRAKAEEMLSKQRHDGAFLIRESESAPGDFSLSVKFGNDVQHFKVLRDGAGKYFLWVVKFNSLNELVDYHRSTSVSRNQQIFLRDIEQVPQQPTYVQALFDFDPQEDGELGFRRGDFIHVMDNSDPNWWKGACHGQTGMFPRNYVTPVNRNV
Assay: SH2 binding enrichment of the phosphorylated peptide, bacterial display (enrichment ratio); higher = better substrate or ligand; peptides without Tyr show the background

Sequence | SH2 binding enrichment
LGGSPYPRVPV [FGFR1_Y701_G703R] | 0.784
GGPTYYIDTNA [ACTL6A_Y69] | 0.822
WASSSYRETPS [SORBS1_Y79_R74W] | 0.779
MSSHHCDFKKF [ZNF445_Y428_Y428C_YF] | 0.811

Q) What value of measured SH2 binding enrichment is listed for DVVKDYAFVHM [RBM14_Y114] ?
A) 0.823

* * *

Test system: c-Src
Assay: phosphorylation enrichment, bacterial display (enrichment ratio); higher = better substrate or ligand; peptides without Tyr show the background
Could you label it 1.0 if measured phosphorylation enrichment is 0.5 or higher, and 0.0 otherwise?

The examples below pair each entry with its known result.
Sequence | System Under Test | Answer Label
ESMQSYDLDYP [UNC13B_Y243_D238E] | c-Src | 1.0
ESPGLYGFLNV [BCR_Y910] | c-Src | 1.0
HRERPYGGGGG [FUS_Y526_R521H] | c-Src | 1.0

Q) Reported phosphorylation enrichment reaches at least 0.5 for KTDVHYRSLGG [DYSF_Y1858] ?
A) 0.0

Q) Reported phosphorylation enrichment reaches at least 0.5 for RSAGKYDVFFI [MECP2_Y120_L124F_YF] ?
A) 1.0

Q) Reported phosphorylation enrichment reaches at least 0.5 for LANNEYFFRVC ?
A) 1.0

* * *

Target: Jak2 (UniProt O60674)
Sequence (O60674 whole entry, looked up): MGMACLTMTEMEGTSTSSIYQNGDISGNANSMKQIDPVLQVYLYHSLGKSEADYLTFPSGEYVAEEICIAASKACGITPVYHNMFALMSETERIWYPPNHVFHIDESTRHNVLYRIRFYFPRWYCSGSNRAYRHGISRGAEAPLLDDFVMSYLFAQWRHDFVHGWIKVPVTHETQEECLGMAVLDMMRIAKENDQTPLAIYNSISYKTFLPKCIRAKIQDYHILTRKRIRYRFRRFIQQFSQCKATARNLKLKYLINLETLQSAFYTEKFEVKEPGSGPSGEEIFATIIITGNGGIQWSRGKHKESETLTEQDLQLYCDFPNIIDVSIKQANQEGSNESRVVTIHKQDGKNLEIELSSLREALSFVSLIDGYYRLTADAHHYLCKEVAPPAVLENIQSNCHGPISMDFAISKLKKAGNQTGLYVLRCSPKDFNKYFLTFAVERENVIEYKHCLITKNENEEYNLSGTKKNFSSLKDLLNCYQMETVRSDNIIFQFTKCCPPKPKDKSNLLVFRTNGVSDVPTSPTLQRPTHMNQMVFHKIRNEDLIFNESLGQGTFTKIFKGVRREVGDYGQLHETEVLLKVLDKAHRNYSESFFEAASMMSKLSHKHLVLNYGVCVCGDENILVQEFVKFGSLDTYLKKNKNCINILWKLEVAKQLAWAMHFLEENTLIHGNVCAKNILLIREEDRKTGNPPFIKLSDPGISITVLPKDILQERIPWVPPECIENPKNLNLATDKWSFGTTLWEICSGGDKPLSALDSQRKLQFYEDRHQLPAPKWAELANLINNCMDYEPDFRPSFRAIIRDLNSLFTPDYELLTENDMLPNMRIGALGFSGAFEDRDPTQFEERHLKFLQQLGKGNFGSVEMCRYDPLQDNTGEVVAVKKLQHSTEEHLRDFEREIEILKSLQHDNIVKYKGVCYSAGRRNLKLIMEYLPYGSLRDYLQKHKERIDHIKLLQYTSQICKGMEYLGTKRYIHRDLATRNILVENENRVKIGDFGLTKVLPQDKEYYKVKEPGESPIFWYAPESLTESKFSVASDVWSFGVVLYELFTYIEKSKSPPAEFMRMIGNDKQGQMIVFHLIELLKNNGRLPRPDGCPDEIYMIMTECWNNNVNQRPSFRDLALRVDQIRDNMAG
Experiment: phosphorylation enrichment, bacterial display (enrichment ratio); higher = better substrate or ligand; peptides without Tyr show the background
Parameter: phosphorylation enrichment
Write the value as a bare number.

Use the examples below as a reference point.
Sequence | System Under Test | Reported Value
DTFDPYLDVAL [USP36_Y268_YF] | Jak2 (UniProt O60674) | 1.25
REVPVYIGEDS [SYNM_Y460] | Jak2 (UniProt O60674) | 1.02
SFPPTYRFERG [INPPL1_Y661_YF] | Jak2 (UniProt O60674) | 0.51
RHTRSYDFMEG [FGF7_Y56_YF] | Jak2 (UniProt O60674) | 0.852

Continue with the next sequence.
Q) What value of measured phosphorylation enrichment is listed for TGDFGYRAPGY [TNS2_Y668] ?
A) 0.557

* * *

Biological target: Jak2 (UniProt O60674)
Experiment: phosphorylation enrichment, bacterial display (enrichment ratio); higher = better substrate or ligand; peptides without Tyr show the background
Parameter: phosphorylation enrichment
Write the value as a bare number.

Sequence | Reported Value
DHAGEYGAEAL [HBA1_Y25_A20D] | 0.675
HYPDVYAWEQL [ALX3_Y181_R183W] | 0.847
KKLHEYNTQFQ [PIK3R1_Y452] | 0.43
KACKHYLTTRT [ZBTB5_Y118] | 0.978

Q) What value of measured phosphorylation enrichment is listed for LFCLHYFHRTF [SRD5A2_Y91_V89L] ?
A) 1.78

Q) What value of measured phosphorylation enrichment is listed for RRIHSYRGYLW [VHL_Y112_H115Y] ?
A) 0.717

Q) What value of measured phosphorylation enrichment is listed for LFCVHYFHRTF [SRD5A2_Y91] ?
A) 2.73

Q) What value of measured phosphorylation enrichment is listed for YPKVRYHWLVL [APTX_Y214_A212V] ?
A) 1.06

Q) What value of measured phosphorylation enrichment is listed for WDLSEYSFKDP [ITGA3_Y237_YF] ?
A) 1.21

Q) What value of measured phosphorylation enrichment is listed for HNLFSYPTKFE [MYO3A_Y1396_H1400Y_YF] ?
A) 1.44

Q) What value of measured phosphorylation enrichment is listed for TRSFKCLLLSM [NF1_Y491_Y491C_YF] ?
A) 1.09

Q) What value of measured phosphorylation enrichment is listed for TKEPKYEGAGS [KIAA1210_Y1615] ?
A) 0.5

Q) What value of measured phosphorylation enrichment is listed for QRDSSYFWEIE [RAF1_Y340_YF] ?
A) 3.31

Q) What value of measured phosphorylation enrichment is listed for MGGSLYFSFPD [HIKESHI_Y55_V54L_YF] ?
A) 3.96

* * *

Tested on: AncSZ
Experiment: phosphorylation enrichment, bacterial display (enrichment ratio); higher = better substrate or ligand; peptides without Tyr show the background
Parameter: phosphorylation enrichment
Write the value as a bare number.

Use the examples below as a reference point.
Sequence | Reported Value
LKGQVYILGGE [ASS1_Y359_R363G] | 1.33
FKDYFYCWNTS [AICDA_Y146_F151S] | 2.62
SHSMRYFFTAV [HLA-C_Y31_D33F] | 1.13

Q) What value of measured phosphorylation enrichment is listed for TPSGNYVACGG [GNB1_Y111_A106T] ?
A) 0.614

* * *

Target: EPHB2 (UniProt P29323)
Sequence (P29323 whole entry, looked up): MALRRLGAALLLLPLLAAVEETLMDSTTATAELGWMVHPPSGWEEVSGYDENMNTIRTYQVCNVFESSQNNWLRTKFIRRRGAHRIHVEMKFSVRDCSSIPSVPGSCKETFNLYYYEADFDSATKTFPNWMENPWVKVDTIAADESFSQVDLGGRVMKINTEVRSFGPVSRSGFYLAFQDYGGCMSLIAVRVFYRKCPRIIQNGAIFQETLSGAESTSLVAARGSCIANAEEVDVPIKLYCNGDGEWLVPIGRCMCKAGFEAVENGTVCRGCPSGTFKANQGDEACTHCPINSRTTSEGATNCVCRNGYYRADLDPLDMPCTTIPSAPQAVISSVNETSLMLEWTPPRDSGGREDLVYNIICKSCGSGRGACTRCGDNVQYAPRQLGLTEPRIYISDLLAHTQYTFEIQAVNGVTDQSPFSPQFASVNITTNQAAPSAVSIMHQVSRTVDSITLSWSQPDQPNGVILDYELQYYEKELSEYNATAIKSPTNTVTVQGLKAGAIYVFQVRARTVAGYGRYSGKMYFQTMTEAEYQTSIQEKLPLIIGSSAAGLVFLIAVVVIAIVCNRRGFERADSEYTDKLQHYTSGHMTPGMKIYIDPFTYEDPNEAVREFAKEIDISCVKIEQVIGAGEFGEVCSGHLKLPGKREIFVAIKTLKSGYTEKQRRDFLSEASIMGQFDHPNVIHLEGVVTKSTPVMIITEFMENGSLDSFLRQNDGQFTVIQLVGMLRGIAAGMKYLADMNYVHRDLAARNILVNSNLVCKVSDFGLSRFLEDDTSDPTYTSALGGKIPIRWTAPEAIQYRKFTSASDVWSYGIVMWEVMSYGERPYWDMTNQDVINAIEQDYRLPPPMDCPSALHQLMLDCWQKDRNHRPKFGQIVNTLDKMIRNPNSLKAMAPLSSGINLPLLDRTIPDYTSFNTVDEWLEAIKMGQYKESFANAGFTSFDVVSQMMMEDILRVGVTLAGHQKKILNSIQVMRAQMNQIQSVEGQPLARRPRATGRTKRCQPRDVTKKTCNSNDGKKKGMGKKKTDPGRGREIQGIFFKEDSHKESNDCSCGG
Assay: phosphorylation enrichment, bacterial display (enrichment ratio); higher = better substrate or ligand; peptides without Tyr show the background
Parameter: phosphorylation enrichment
Write the value as a bare number.

Sequence | phosphorylation enrichment
REVKAYGAGLL [TH_Y419_G414R] | 0.405
VRFMAYTDETF [F8_Y450] | 0.612
SLDHPYEKPRK [INAVA_Y333] | 0.467

Continue with the next sequence.
Q) Hello, I am looking for reported phosphorylation enrichment with EPHB2 (UniProt P29323) for SSAAGYACLAF [MVD_Y131_YF] . Could you help?
A) 0.455
